Test system: RPMI-8226 leukemia
TEST PROTOCOL: NCI tumour cell line growth inhibition, 48 h
MEASURED QUANTITY: TGI

Worked cases, TGI given:
# COMPOUND, TGI
measured = [
    ("COc1cc([C@@H]2c3cc4c(cc3[C@@H](NCCNCCO)[C@H]3COC(=O)[C@H]23)OCO4)cc(OC)c1O", "3.84 µM"),
    ("COc1cc(OC)c2c(c1OC)OCC(Cc1ccc(O)cc1)C2=O (stereo not given)", "> 25 µM"),
    ("O=C1c2cc3ccccc3cc2C2(c3ccc(Cl)cc3)N[C@H]3CCCC[C@@H]3N12 (stereo not given in full)", "> 100 µM"),
    ("O=C(/C=C/c1ccc(O)c(O)c1)OCCc1cccc2ccccc12", "20.5 µM"),
    ("O=C1c2ccccc2-c2nc(-c3cccnc3)cc3c2c1nc1ccccc13", "> 100 µM"),
]

For every item in the list below, what is its measured TGI?
1. CC(=O)C1=C(N=[N+]=[N-])c2cccc3cccc(c23)C1=O
2. O=C(Nc1cc(C(F)(F)F)ccc1F)Nc1n[nH]c2ccccc12
3. O=c1[nH]c2ccc(CC(=S)N3CCOCC3)cc2s1
4. C/C(=N\Nc1ccc([N+](=O)[O-])cc1[N+](=O)[O-])c1ccc2ccccc2n1
5. Cn1c(=O)cc2c3c(c(NCCCO)ccc31)C(=O)c1ccccc1-2

**Result**
1. 42.8 µM
2. > 100 µM
3. > 100 µM
4. > 100 µM
5. > 100 µM
